Collected TGI values appear next to each entry.
test system: DLD-1 colon; assay: NCI tumour cell line growth inhibition, 48 h
Observation Type: TGI

>>> meas_value("O=C(N/C=C/C=C/Sc1ccccc1)OCc1ccccc1")
"29 µM"
>>> meas_value("CN(C)CCN(C)C(=O)C1CCCN1C(=O)OCc1ccccc1 (stereo not given)")
"> 100 µM"
>>> meas_value("CC(=O)N(CCN1C(=O)c2ccccc2C1=O)CCN1C(=O)c2ccccc2C1=O")
"> 100 µM"
>>> meas_value("COc1ccc2[nH]c3c4c(cc(-c5ccccc5)c3c2c1)C(=O)N(c1ccccc1)C4=O")
"> 100 µM"
>>> meas_value("CC(=O)Oc1c(Br)ccc2cc(C(Br)Br)c(C(=O)c3ccccc3)nc12")
"51.5 µM"
>>> meas_value("CC(=O)Oc1ccc(Nn2c3ccccc3c3ccccc32)c(C)c1")
"> 100 µM"
>>> meas_value("O=C1Oc2cc3c(c4cccc1c24)OCN(c1ccccc1)C3")
"> 100 µM"
>>> meas_value("O=[N+]([O-])c1ccc(/C(Cl)=C/c2ccc(/C=C(\\Cl)c3ccc([N+](=O)[O-])cc3[N+](=O)[O-])cc2)c([N+](=O)[O-])c1")
"> 100 µM"
>>> meas_value("CC(=O)CC(=O)NC=O")
"> 100 µM"
>>> meas_value("CC(C)(CN1CCCCC1)C(=O)CC(SCCN)c1ccc(Cl)cc1 (stereo not given)")
"3.35 µM"

---

test system: A498 renal; test: NCI tumour cell line growth inhibition, 48 h
condition met means recorded TGI is 9 µM or above; condition not met means it is below 9 µM.

>>> assigned_category("O=[N+]([O-])/C=C/c1cc2ccc3ccccc3c2[nH]1")
"condition not met"
>>> assigned_category("COc1cc2c(cc1O)Cc1c-2[n+](C)cc2cc(OC)c(OC)cc12")
"condition met"
>>> assigned_category("COc1ccc(C2CC(c3ccc4ccccc4c3)=NN2c2nc(O)c(C3=c4cc(OC)ccc4=NC3=O)s2)cc1 (stereo unspecified)")
"condition not met"
>>> assigned_category("O=C(O)c1ccc(Oc2nc3ccccc3s2)cc1")
"condition met"
>>> assigned_category("O=C1C=CC(=O)N1c1ccc(I)cc1")
"condition met"
>>> assigned_category("COc1cc2cc3c4cc(OC)c(OC)cc4cc[n+]3c(C)c2cc1OC")
"condition met"
>>> assigned_category("O=c1[nH]c2ccccc2n2cc3ccccc3c12")
"condition met"
>>> assigned_category("C=C(CCC/C(C)=C/C=C/[C@H](C)CCCc1ccoc1)C[C@@H]1OC(=O)[C@H](C)[C@@H]1O")
"condition met"
>>> assigned_category("NC(CO)c1ccc(OCc2ccccc2)cc1 (stereo unspecified)")
"condition met"
>>> assigned_category("O=c1[nH]c(F)nc2c1ncn2C1OC(CO)C(O)C1O (stereo unspecified)")
"condition met"

---

tested on: T-47D breast; test: NCI tumour cell line growth inhibition, 48 h
Collected GI50 values appear next to each entry.
Observation Type: GI50

>>> meas_value("O=C(Cc1ccc(Nc2ccnc(C(F)(F)F)c2)cc1)N/N=C/c1ccccc1O")
"3.26 µM"
>>> meas_value("CCN(CC)CC(O)COc1c(Br)c(Br)c(Br)c2c1OC(C)(C)C2 (centres undefined)")
"10.6 µM"
>>> meas_value("COc1ccc(/C=C/C(=O)c2ccc(Nc3nc(Nc4ccc(F)cc4)nc(Nc4ccc(Cl)cc4)n3)cc2)cc1")
"72.6 µM"
>>> meas_value("O=C(O)c1cn(C2CC2)c2cc(N3CCN(C(=O)Nc4nc(-c5ccc(Br)cc5)cs4)CC3)c(F)cc2c1=O")
"1.57 µM"

Reference for the values: PubChem BioAssay (NCI)
